Tested on: M14
Assay: Anticancer activity against human M14 cells assessed cell growth at 10 uM after 48 hrs by sulforhodamine B assay relative to control
Format: functional
For each of the compounds below, state its Activity.
Answers are plain numbers, in %.

COCC[n+]1ccn(C)c1.O=S(=O)([N-]S(=O)(=O)C(F)(F)F)C(F)(F)F : 110.1
CCCCCC[n+]1ccn(C)c1.FC(F)(F)C(F)(F)[P-](F)(F)(F)(C(F)(F)C(F)(F)F)C(F)(F)C(F)(F)F : 88.81
CCCCCC[n+]1ccn(C)c1.O=S(=O)([N-]S(=O)(=O)C(F)(F)F)C(F)(F)F : 100.39
CCCCCCCCCCCCCCCCCC[n+]1ccn(C)c1.O=S(=O)([N-]S(=O)(=O)C(F)(F)F)C(F)(F)F : -30.74

In the following, a different compound is considered.
For "CCCCCCCCCCCCCCCCCC[n+]1ccn(C)c1.FC(F)(F)C(F)(F)[P-](F)(F)(F)(C(F)(F)C(F)(F)F)C(F)(F)C(F)(F)F" the compound record lists Activity as -26.94

---

Test system: SF-268
Test: Anticancer activity against human SF268 cells after 48 hrs by sulforhodamine B assay
Assay type: functional
Settings: Homo sapiens, SF-268, 48 h; read-out: LC50 (the source's name)
For each of the compounds below, state its CC50.
Give bare numbers, in µM.

CCCCCCCCCCCCCCCCCC[n+]1ccn(C)c1.[Cl-] : 5.88
CCCCCCCCCCCCCCCCCC[n+]1ccn(C)c1.O=S(=O)([N-]S(=O)(=O)C(F)(F)F)C(F)(F)F : 6.29
CCCCCCCCCCCCCCCCCC[n+]1ccn(C)c1.FC(F)(F)C(F)(F)[P-](F)(F)(F)(C(F)(F)C(F)(F)F)C(F)(F)C(F)(F)F : 5.79

In the following, a different compound is considered.
For "CCCCCCCCCCCCCCCC[n+]1ccn(C)c1.[Cl-]" the compound record lists CC50 as 4.93

---

System: OVCAR-4
Test: Anticancer activity against human OVCAR4 cells after 48 hrs by sulforhodamine B assay
Assay type: functional
Conditions: Homo sapiens, OVCAR-4, 48 h; read-out: LC50 (the source's name)
measurement-name: CC50

Can you give me CC50 for all of these, one by one?
1. CCCCCCCCCCCC[n+]1ccn(C)c1.[Cl-]
2. CCCCCCCCCCCCCCCCCC[n+]1ccn(C)c1.FC(F)(F)C(F)(F)[P-](F)(F)(F)(C(F)(F)C(F)(F)F)C(F)(F)C(F)(F)F
3. CCCCCCCCCCCCCCCCCC[n+]1ccn(C)c1.O=S(=O)([N-]S(=O)(=O)C(F)(F)F)C(F)(F)F
4. CCCCCCCCCCCCCCCC[n+]1ccn(C)c1.[Cl-]

a:
["> 100 µM", "> 100 µM", "> 100 µM", "7.2 µM"]

---

For each of the molecules below, state its Activity.
Test system: Malme-3M
Assay: Anticancer activity against human MALME-3M cells assessed cell growth at 10 uM after 48 hrs by sulforhodamine B assay relative to control
Assay type: functional
Be sure to follow the number with its unit.

Study these solved cases before continuing.
CCCCCCCC[n+]1ccn(C)c1.F[B-](F)(F)F : 80.13%
CCCCCCCCOS(=O)(=O)[O-].CCCCCCCC[n+]1ccn(C)c1 : 80.15%
Cn1cc[n+](CCO)c1.O=S(=O)([N-]S(=O)(=O)C(F)(F)F)C(F)(F)F : 121.81%
CCCCCC[n+]1ccn(C)c1.FC(F)(F)C(F)(F)[P-](F)(F)(F)(C(F)(F)C(F)(F)F)C(F)(F)C(F)(F)F : 102.23%

In the following, a different molecule is considered.
For "COCC[n+]1ccn(C)c1.O=S(=O)([N-]S(=O)(=O)C(F)(F)F)C(F)(F)F" the molecule record lists Activity as 125.61%

---

Test system: MDA-MB-468
Test: Anticancer activity against human MDA-MB-468 cells assessed cell growth at 10 uM after 48 hrs by sulforhodamine B assay relative to control
Type: functional
measurement-name: Activity (%)
Give bare numbers, in %.

Study these solved cases before continuing.
Cn1cc[n+](Cc2ccccc2)c1.F[P-](F)(F)(F)(F)F : 101.43
CCCCCCCCCCCC[n+]1ccn(C)c1.[Cl-] : -42.1
CCCCCC[n+]1ccn(C)c1.FC(F)(F)C(F)(F)[P-](F)(F)(F)(C(F)(F)C(F)(F)F)C(F)(F)C(F)(F)F : 39.66
CCCCCCCCOS(=O)(=O)[O-].CCCCCCCC[n+]1ccn(C)c1 : 38.15
CCCCCCCCCCCCCCCC[n+]1ccn(C)c1.[Cl-] : -78.99

Can you give me Activity for all of these, one by one?
1. CCCCCCCC[n+]1ccn(C)c1.F[B-](F)(F)F
2. CCCCCCCCCCCCCCCCCC[n+]1ccn(C)c1.[Cl-]
3. CCCCCCCC[n+]1ccn(C)c1.F[P-](F)(F)(F)(F)F
4. CCCCCCCCCCCCCCCCCC[n+]1ccn(C)c1.F[P-](F)(F)(F)(F)F

a:
1: 39.75; 2: -42.33; 3: 21; 4: -23.16

Can you give me Activity for all of these, one by one?
1. CCCCCC[n+]1ccn(C)c1.O=S(=O)([N-]S(=O)(=O)C(F)(F)F)C(F)(F)F
2. Cn1cc[n+](CCO)c1.O=S(=O)([N-]S(=O)(=O)C(F)(F)F)C(F)(F)F
3. CCCCCCCCCCCCCCCCCC[n+]1ccn(C)c1.FC(F)(F)C(F)(F)[P-](F)(F)(F)(C(F)(F)C(F)(F)F)C(F)(F)C(F)(F)F

a:
1: 80.22; 2: 108.29; 3: 5.93

Can you give me Activity for all of these, one by one?
1. CCCCCCCC[n+]1ccn(C)c1.[Cl-]
2. COCC[n+]1ccn(C)c1.O=S(=O)([N-]S(=O)(=O)C(F)(F)F)C(F)(F)F
3. CCCCCCCCCCCCCCCCCC[n+]1ccn(C)c1.O=S(=O)([N-]S(=O)(=O)C(F)(F)F)C(F)(F)F
4. CCCCCCCCCCCC[n+]1ccn(C)c1.F[B-](F)(F)F

a:
46.81
106.36
-20.4
-43.37

---

For each of the molecules below, state its CC50.
Tested on: HCT-15
Assay: Anticancer activity against human HCT15 cells after 48 hrs by sulforhodamine B assay
Type: functional
Conditions: Homo sapiens, HCT-15, 48 h; read-out: LC50 (the source's name)
Give bare numbers, in µM.

CCCCCCCCCCCCCCCCCC[n+]1ccn(C)c1.FC(F)(F)C(F)(F)[P-](F)(F)(F)(C(F)(F)C(F)(F)F)C(F)(F)C(F)(F)F : 4.41
CCCCCCCCCCCCCCCCCC[n+]1ccn(C)c1.[Cl-] : 4.11
CCCCCCCCCCCCCCCCCC[n+]1ccn(C)c1.O=S(=O)([N-]S(=O)(=O)C(F)(F)F)C(F)(F)F : 5.94

For "CCCCCCCCCCCCCCCC[n+]1ccn(C)c1.[Cl-]" the molecule record lists CC50 as 4.65

---

Tested on: PC-3
Assay: Anticancer activity against human PC3 cells after 48 hrs by sulforhodamine B assay
Format: functional
Conditions: Homo sapiens, PC-3, 48 h
For each of the compounds below, state its GI50.
Answers are plain numbers, in nM.

Study these solved cases before continuing.
CCCCCCCCCCCCCCCCCC[n+]1ccn(C)c1.O=S(=O)([N-]S(=O)(=O)C(F)(F)F)C(F)(F)F : 311
CCCCCCCCCCCCCCCC[n+]1ccn(C)c1.[Cl-] : 268
CCCCCCCCCCCCCCCCCC[n+]1ccn(C)c1.[Cl-] : 212
CCCCCCCCCCCCCCCCCC[n+]1ccn(C)c1.FC(F)(F)C(F)(F)[P-](F)(F)(F)(C(F)(F)C(F)(F)F)C(F)(F)C(F)(F)F : 276

In the following, a different compound is considered.
For "CCCCCCCCCCCC[n+]1ccn(C)c1.[Cl-]" the compound record lists GI50 as 1820

---

For each of the compounds below, state its GI50.
Tested on: M14
Assay: Anticancer activity against human M14 cells after 48 hrs by sulforhodamine B assay
Format: functional
Conditions: Homo sapiens, M14, 48 h
Give bare numbers, in nM.

CCCCCCCCCCCCCCCCCC[n+]1ccn(C)c1.[Cl-] : 330
CCCCCCCCCCCCCCCCCC[n+]1ccn(C)c1.O=S(=O)([N-]S(=O)(=O)C(F)(F)F)C(F)(F)F : 537
CCCCCCCCCCCCCCCC[n+]1ccn(C)c1.[Cl-] : 343

In the following, a different compound is considered.
For "CCCCCCCCCCCCCCCCCC[n+]1ccn(C)c1.FC(F)(F)C(F)(F)[P-](F)(F)(F)(C(F)(F)C(F)(F)F)C(F)(F)C(F)(F)F" the compound record lists GI50 as 402

// data source = ChEMBL document CHEMBL1153245
